All values here come from ChEMBL document CHEMBL1140918.

assayDetails: Ratio of drug level in blood to plasma in human
Assay type: ADME, cell-free
conditionSummary: read-out: BPR
propertyMeasured: blood plasma ratio
Answers are plain numbers.

Endpoint output: blood plasma ratio of CC(C)(C)NCc1ccc(Nc2ccnc3cc(Cl)ccc23)cc1O [GSK-369796] . Value? 1.2

----------
assayDetails: Elimination half life in orally dosed mouse
Type: ADME, organism-based
conditionSummary: in vivo, po, read-out: beta t1/2 (converted)
propertyMeasured: half-life (min)
Give bare numbers, in min.

Endpoint output: half-life of CC(C)(C)NCc1ccc(Nc2ccnc3cc(Cl)ccc23)cc1O . Value? 180

----------
assayDetails: Oral bioavailability in rat
Format: ADME, organism-based
conditionSummary: in vivo
propertyMeasured: bioavailability (%)
Give bare numbers, in %.

Endpoint output: bioavailability of CC(C)(C)NCc1ccc(Nc2ccnc3cc(Cl)ccc23)cc1O . Value? 89

----------
assayDetails: Clearance in iv and orally dosed monkey blood
Format: ADME, organism-based, Macaca mulatta
conditionSummary: rhesus monkey, whole blood
propertyMeasured: clearance (mL/min/kg)
Answers are plain numbers, in mL/min/kg.

1) CC(C)(C)NCc1ccc(Nc2ccnc3cc(Cl)ccc23)cc1O :: 14.5

Proceeding to the next compound to report its clearance.
Endpoint output: clearance of CCNCc1ccc(Nc2ccnc3cc(Cl)ccc23)cc1O . Value? 49

----------
Tested on: Heme
assayDetails: Binding affinity to heme in DMSO assessed as equilibrium constant by UV-visible spectrophotometry
Parameters: scale not given here
propertyMeasured: Activity

1. OC(c1cc(C(F)(F)F)nc2c(C(F)(F)F)cccc12)C1CCCCN1 (stereo not given) :: 3.84

# per-item lookup of Activity; items listed below
1. C=C[C@H]1CN2CC[C@H]1C[C@H]2[C@H](O)c1ccnc2ccc(OC)cc12
2. CCN(CC)CCCC(C)Nc1ccnc2cc(Cl)ccc12 (stereo not given)
3. CCN(CC)Cc1cc(Nc2ccnc3cc(Cl)ccc23)ccc1O.Cl
4. CC(C)(C)NCc1ccc(Nc2ccnc3cc(Cl)ccc23)cc1O

4.4
5.3
4.4
5.23

----------
measuredOn: UniProtKB P11712
Sequence (P11712 whole entry): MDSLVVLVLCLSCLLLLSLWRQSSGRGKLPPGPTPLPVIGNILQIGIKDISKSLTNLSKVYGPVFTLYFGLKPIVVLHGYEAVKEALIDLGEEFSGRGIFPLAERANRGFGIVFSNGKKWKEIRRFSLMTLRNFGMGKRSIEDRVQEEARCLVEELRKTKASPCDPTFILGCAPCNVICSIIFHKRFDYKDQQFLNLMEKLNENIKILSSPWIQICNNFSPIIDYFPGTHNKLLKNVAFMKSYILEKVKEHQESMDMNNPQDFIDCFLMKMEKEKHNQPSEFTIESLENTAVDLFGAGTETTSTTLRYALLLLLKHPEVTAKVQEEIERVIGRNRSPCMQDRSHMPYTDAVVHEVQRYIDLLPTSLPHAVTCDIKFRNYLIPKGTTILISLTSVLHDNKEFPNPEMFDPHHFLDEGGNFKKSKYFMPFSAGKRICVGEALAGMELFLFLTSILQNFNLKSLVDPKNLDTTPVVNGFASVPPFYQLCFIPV
assayDetails: Inhibition of human recombinant CYP2C9
propertyMeasured: IC50

1. CCNCc1ccc(Nc2ccnc3cc(Cl)ccc23)cc1O :: > 100 µM

Proceeding to the next compound to report its IC50.
Endpoint output: IC50 of CC(C)(C)NCc1ccc(Nc2ccnc3cc(Cl)ccc23)cc1O . Value? ≥ 90 µM

----------
measuredOn: Cytochrome P450 2D6 (Homo sapiens, UniProt P10635)
Sequence (P10635 whole entry): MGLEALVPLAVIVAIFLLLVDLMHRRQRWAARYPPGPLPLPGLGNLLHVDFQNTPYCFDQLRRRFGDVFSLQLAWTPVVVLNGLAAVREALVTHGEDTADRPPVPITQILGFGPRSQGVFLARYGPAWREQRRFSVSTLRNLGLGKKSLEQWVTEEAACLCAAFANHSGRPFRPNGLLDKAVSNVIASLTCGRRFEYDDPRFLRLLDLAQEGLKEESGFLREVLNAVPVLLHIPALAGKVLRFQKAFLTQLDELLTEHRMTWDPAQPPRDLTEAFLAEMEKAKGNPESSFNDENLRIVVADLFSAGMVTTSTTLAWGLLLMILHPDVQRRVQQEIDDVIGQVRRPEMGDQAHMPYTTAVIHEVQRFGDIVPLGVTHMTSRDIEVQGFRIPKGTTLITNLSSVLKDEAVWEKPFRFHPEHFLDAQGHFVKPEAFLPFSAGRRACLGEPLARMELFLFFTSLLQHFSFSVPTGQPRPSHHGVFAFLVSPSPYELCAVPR
assayDetails: Inhibition of human recombinant CYP2D6
What pIC50 was measured for each of the following?
One number for each entry, as −log10 of the molar value.

1. CC(C)(C)NCc1ccc(Nc2ccnc3cc(Cl)ccc23)cc1O :: 5.52

Proceeding to the next compound to report its pIC50.
Endpoint output: pIC50 of CCNCc1ccc(Nc2ccnc3cc(Cl)ccc23)cc1O . Value? 5.47

----------
measuredOn: Cytochrome P450 1A2 (Homo sapiens, UniProt P05177)
Sequence (P05177 whole entry): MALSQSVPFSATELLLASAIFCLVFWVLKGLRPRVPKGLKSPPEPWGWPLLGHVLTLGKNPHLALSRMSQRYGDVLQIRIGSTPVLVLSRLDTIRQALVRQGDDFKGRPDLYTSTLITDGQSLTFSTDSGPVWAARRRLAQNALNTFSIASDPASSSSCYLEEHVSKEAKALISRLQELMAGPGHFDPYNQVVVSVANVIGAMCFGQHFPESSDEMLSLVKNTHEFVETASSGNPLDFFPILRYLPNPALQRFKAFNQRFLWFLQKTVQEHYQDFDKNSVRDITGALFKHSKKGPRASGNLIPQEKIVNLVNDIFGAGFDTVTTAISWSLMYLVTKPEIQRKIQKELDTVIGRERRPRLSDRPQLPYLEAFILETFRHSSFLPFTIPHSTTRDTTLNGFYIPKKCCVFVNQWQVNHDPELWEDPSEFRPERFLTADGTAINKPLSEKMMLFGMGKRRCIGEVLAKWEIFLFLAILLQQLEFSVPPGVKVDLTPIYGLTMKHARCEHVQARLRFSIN
assayDetails: Inhibition of human recombinant CYP1A2
propertyMeasured: IC50 (µM)
One number for each entry, in µM.

1. CC(C)(C)NCc1ccc(Nc2ccnc3cc(Cl)ccc23)cc1O [GSK-369796] :: 29

Proceeding to the next compound to report its IC50.
Endpoint output: IC50 of CCNCc1ccc(Nc2ccnc3cc(Cl)ccc23)cc1O [DESETHYL ISOQUINE] . Value? 8

----------
measuredOn: Cytochrome P450 3A4 (Homo sapiens)
Sequence (P08684 whole entry): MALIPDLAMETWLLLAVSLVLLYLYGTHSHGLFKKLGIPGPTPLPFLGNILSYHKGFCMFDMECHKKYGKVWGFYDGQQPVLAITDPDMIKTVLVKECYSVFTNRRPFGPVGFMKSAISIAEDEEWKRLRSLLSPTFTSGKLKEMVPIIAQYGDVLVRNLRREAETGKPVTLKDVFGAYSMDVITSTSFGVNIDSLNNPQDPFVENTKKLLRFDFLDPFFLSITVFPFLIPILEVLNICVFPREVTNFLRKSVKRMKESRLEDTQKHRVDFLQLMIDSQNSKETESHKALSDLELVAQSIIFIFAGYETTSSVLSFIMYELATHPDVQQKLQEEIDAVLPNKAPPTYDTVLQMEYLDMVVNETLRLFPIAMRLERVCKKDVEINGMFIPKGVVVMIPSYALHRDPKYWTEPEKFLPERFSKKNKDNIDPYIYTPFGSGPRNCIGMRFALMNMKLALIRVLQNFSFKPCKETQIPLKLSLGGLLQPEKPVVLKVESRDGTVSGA
assayDetails: Inhibition of human recombinant CYP3A4 using phenyl-piperazinyl-methyl-benzyl-resofurin as substrate
Assay type: ADME
What IC50 was measured for each of the following?

Reference set, count: 2
1. CC(C)(C)NCc1ccc(Nc2ccnc3cc(Cl)ccc23)cc1O :: > 100 µM
2. CCNCc1ccc(Nc2ccnc3cc(Cl)ccc23)cc1O :: ≥ 55 µM

Proceeding to the next compound to report its IC50.
Cytochrome P450 3A4 (Homo sapiens) / IC50 / CCNCc1cc(Nc2ccnc3cc(Cl)ccc23)ccc1O : value? > 100 µM

----------
measuredOn: Cytochrome P450 3A4 (Homo sapiens)
assayDetails: Inhibition of human recombinant CYP3A4 using […] as substrate
Type: ADME
conditionSummary: read-out: IC50
propertyMeasured: IC50

Endpoint output: IC50 of CCNCc1ccc(Nc2ccnc3cc(Cl)ccc23)cc1O . Value? > 100 µM

----------
measuredOn: UniProt P33261
Sequence (P33261 whole entry): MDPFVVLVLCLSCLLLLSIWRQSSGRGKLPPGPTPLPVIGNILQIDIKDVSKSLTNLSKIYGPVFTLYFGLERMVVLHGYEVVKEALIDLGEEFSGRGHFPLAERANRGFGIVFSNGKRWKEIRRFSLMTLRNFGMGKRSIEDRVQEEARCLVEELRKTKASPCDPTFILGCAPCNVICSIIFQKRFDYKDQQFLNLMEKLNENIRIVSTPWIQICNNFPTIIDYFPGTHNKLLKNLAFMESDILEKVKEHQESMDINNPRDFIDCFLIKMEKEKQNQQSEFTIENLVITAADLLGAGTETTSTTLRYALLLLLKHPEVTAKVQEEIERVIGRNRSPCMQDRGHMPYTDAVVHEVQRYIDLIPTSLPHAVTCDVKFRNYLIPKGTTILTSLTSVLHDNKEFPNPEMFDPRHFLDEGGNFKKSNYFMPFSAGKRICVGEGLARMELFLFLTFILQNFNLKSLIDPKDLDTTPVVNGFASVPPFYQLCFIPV
assayDetails: Inhibition of human recombinant CYP2C19
propertyMeasured: pIC50
Answers are plain numbers, as −log10 of the molar value.

# per-item lookup of pIC50; items listed below
1. CC(C)(C)NCc1ccc(Nc2ccnc3cc(Cl)ccc23)cc1O [GSK-369796]
2. CCNCc1ccc(Nc2ccnc3cc(Cl)ccc23)cc1O [DESETHYL ISOQUINE]

4.62
4.21

----------
assayDetails: Clearance in iv and orally dosed rat blood
Assay type: ADME, organism-based
conditionSummary: whole blood
propertyMeasured: clearance (mL/min/kg)
Answers are plain numbers, in mL/min/kg.

Endpoint output: clearance of CC(C)(C)NCc1ccc(Nc2ccnc3cc(Cl)ccc23)cc1O . Value? 26

----------
assayDetails: Clearance in iv and orally dosed mouse blood
Format: ADME, organism-based
conditionSummary: whole blood
propertyMeasured: clearance (mL/min/kg)
One number for each entry, in mL/min/kg.

Endpoint output: clearance of CC(C)(C)NCc1ccc(Nc2ccnc3cc(Cl)ccc23)cc1O [GSK-369796] . Value? 17
